Origin of the recorded values: PubChem BioAssay

Assay: differential killing of epithelial or mesenchymal cells, primary screen, imaging, PC-3E GFP, TEM4-18 mCherry, co-culture (AID 1345086);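 note: cells exposed to compound for 72 h before imaging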
Details: imaging cell counts, measured here: mesenchymal TEM4-18 mCherry cell survival, at 1 µM
Measured property: normalised cell number

Compound: CN1CCN(CCC=C2c3ccccc3Sc3ccc(S(=O)(=O)N(C)C)cc32)CC1
Measured number: 0.89
//
Compound: Oc1ccc(Oc2cnc3ccc(Cl)cc3n2)cc1
Measured number: 1.05
//
Compound: COc1ccc(-c2coc3cc(O)ccc3c2=O)c(OC)c1
Measured number: 1.08
//
Compound: CC(=O)OC1(C)CC[C@@]23CC1C(C)(C)[C@@H]2CC[C@H]3C (stereo partly specified)
Measured number: 1.15
//
Compound: CC[C@@H]1OC(=O)c2c(OC)cc(=O)oc21
Measured number: 1.11
//
Compound: NCC(O)c1ccc(O)c(O)c1 (stereo unspecified)
Measured number: 1.45
//
Compound: O=C(NCc1ccccc1)C1O[C@H](NCc2ccccc2)[C@@H](O)[C@@H](O)C1O (stereo partly specified)
Measured number: 1.13
//
Compound: CC[C@@H](C)CC(=O)N1C(=S)O[C@@H]2Cc3ccccc3[C@@H]21
Measured number: 1.05
//
Compound: CC(C)=CCC[C@H](C)[C@H]1CC[C@]2(C)C[C@@H]3C(C)=CC(=O)[C@@H]3/C(C=O)=C\C[C@@H]12
Measured number: 1.04
//
Compound: CO[C@H]1C[C@H](O[C@H]2[C@H](C)[C@@H](O[C@@H]3O[C@H](C)C[C@H](N(C)C)[C@H]3O)[C@@H](C)C[C@]3(CO3)C(=O)[C@H](C)[C@@H](O)[C@@H](C)[C@@H](C)OC(=O)[C@@H]2C)O[C@@H](C)[C@@H]1O
Measured number: 0.97
//
Compound: CC1=C(C(=O)O)N2C(=O)[C@@H](NC(=O)[C@H](N)C3=CCC=CC3)C2SC1 (stereo partly specified)
Measured number: 1.14
//
Compound: CC1(C)C[C@]2(C)CC(=O)O[C@H]3OC(=O)[C@@H]4CC[C@@H]1[C@]342
Measured number: 0.96
//
Compound: C[C@]12CCC(=O)C=C1C=CC1C2CC[C@@]2(C)C1CC[C@@]21CCC(=O)O1 (stereo partly specified)
Measured number: 0.92
//
Compound: CC(=O)[C@@]12O[C@](C)(c3ccccc3)O[C@@H]1CC1C3CCC4=CC(=O)CC[C@]4(C)C3CC[C@@]12C (stereo partly specified)
Measured number: 1.26
//
Compound: CC1(C)C2CC(=O)[C@@]3(C)C4=CC(=O)O[C@@H](C(=O)O)[C@]4(C)CCC3[C@@]2(C)[C@@H](O)C[C@H]1O (stereo partly specified)
Measured number: 0.99
//
Compound: CC(C)N1CCN(c2ccc(OC[C@H]3CO[C@](Cn4cncn4)(c4ccc(Cl)cc4Cl)O3)cc2)CC1
Measured number: 0.87
//
Compound: Cc1cc(-n2c(=O)[nH]c(=O)n(C)c2=O)ccc1Oc1ccc(SC(F)(F)F)cc1
Measured number: 1.05
//
Compound: CC(C)OC(=O)CCC/C=C\C[C@@H]1[C@@H](/C=C/C(O)COc2cccc(C(F)(F)F)c2)[C@H](O)C[C@@H]1O (stereo partly specified)
Measured number: 1.08
//
Compound: CCN(CC)C(=O)C1(c2ccccc2)CC1CN (stereo unspecified)
Measured number: 0.98
//
Compound: CC(C)C[C@@H](NC(=O)OCC1c2ccccc2-c2ccccc21)C(=O)O
Measured number: 0.97
//
Compound: CC(C)CC1OC23SCC(c4ccccc4)N2C(=O)C1C(C)(C)S3 (stereo unspecified)
Measured number: 1.03
//
Compound: CC(CCOc1ccc(C(=O)O)cc1)C(=O)O (stereo unspecified)
Measured number: 1.14
//
Compound: COc1ccc(-c2oc3ccccc3c(=O)c2OC)cc1
Measured number: 1.08
//
Compound: C[C@@H]1CC2C3C[C@H](F)C4=CC(=O)C=C[C@]4(C)[C@@]3(F)[C@@H](O)C[C@]2(C)[C@@]1(O)C(=O)COC(=O)C(C)(C)C (stereo partly specified)
Measured number: 1.35
//
Compound: CC1=CC(=O)NS(=O)(=O)O1
Measured number: 1.03
//
Compound: COc1cc(NS(C)(=O)=O)ccc1Cc1c2ccccc2nc2ccccc12
Measured number: 0.31

* * *

Test: growth inhibition of DIPG glioma cells, dose response, cell-based, SU-DIPG-XIII, MIPE5.0, CellTiter-Glo, qHTS (AID 1347064);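 for AC50: cells exposed to compound for 48 hours before the viability read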
Settings: SU-DIPG-XIII viability, CellTiter-Glo ATP luminescence
Inconclusive results are not listed. Calls of active or inactive are those of the source. The limit is not given here; nearly all actives have AC50 up to about 23 µM.
Classes used: 1.0 (active), 0.0 (inactive)

Smiles representation: CCCc1nc(C(C)(C)O)c(C(=O)O)n1Cc1ccc(-c2ccccc2-c2nn[nH]n2)cc1
Classification: 0.0
--
Smiles representation: C[C@H](NC(=O)c1sccc1OCc1ccc(Cl)cc1)c1ccccc1
Classification: 1.0
--
Smiles representation: CO[C@H]1O[C@@H]2O[C@@]3(C)CC[C@H]4[C@H](C)CC[C@@H]([C@H]1C)[C@@]24OO3
Classification: 0.0
--
Smiles representation: CC[C@H]1OC(=O)[C@H](C)[C@@H](O[C@H]2C[C@@](C)(OC)[C@@H](O)[C@H](C)O2)[C@H](C)[C@@H](O[C@@H]2O[C@H](C)C[C@H](N(C)C)[C@H]2O)[C@](C)(O)C[C@@H](C)CN(C)[C@H](C)[C@@H](O)[C@]1(C)O
Classification: 0.0

* * *

Assay: inhibitors of mitochondrial cytochrome c release, biochemical, purified mitochondria (AID 1603);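 note: mouse liver mitochondria challenged with calcium chloride; signal normalized to the plate average as 100%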
Conditions: stronger effect = lower value

Molecule: C1CCN2C[C@H]3C[C@H](CN4CCCC[C@@H]34)[C@H]2C1
cytochrome c release ratio: 1.05
--
Molecule: CC1(C)C2CC[C@]3(C)C(C(=O)C=C4[C@H]5C[C@@](C)(C(=O)O)CC[C@]5(C)CC[C@]43C)[C@@]2(C)CC[C@@H]1O (stereo not given in full)
cytochrome c release ratio: 1.2
--
Molecule: N[C@@H]1[C@@H](O)[C@H](O)[C@@H](CO)O[C@H]1O
cytochrome c release ratio: 0.85
--
Molecule: NC(N)=N/N=C\c1c(Cl)cccc1Cl
cytochrome c release ratio: 1.41
--
Molecule: C[C@]12CCC(=O)C=C1CCC1C2[C@@H](O)C[C@@]2(C)C1CC[C@]2(O)C(=O)CO (stereo not given in full)
cytochrome c release ratio: 1.36

* * *

Test system: R275C/beta4
Assay: modulators of BK channel variants, profiling panel, selectivity assay, cell-based, U2OS BacMam, thallium flux, beta subunits (AID 1259406);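 note: initial slope of Thallos dye fluorescence rise after thallium is added; log ratio against the mean of 0.3% DMSO vehicle wells on the same plate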
Settings: at 30 µM
Active and inactive are the calls of the source.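 The calls were made as follows: active = thallium flux through the channel raised or lowered by more than 3 SD from vehicle-only wells, actives on both sides; inactive = the rest.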
Quick list: log fold change Tl+ flux per entry.
Measured property: log fold change Tl+ flux

Molecule: C=CC1=C(C(=O)O)N2C(=O)[C@@H](NC(=O)C(=NOCC(=O)O)c3csc(N)n3)[C@H]2SC1
Measured property: log fold change Tl+ flux
Result: 0.0168 (inactive)
--
Molecule: O=C(NC(=O)C12CC3CC(CC(C3)C1)C2)Nc1ccc(Cl)cc1
Measured property: log fold change Tl+ flux
Result: 0.0337 (inactive)
--
Molecule: Clc1ccc(-n2nnnc2-c2cccnc2)c(Cl)c1
Measured property: log fold change Tl+ flux
Result: 0.00931 (inactive)
--
Molecule: CNCC[C@H](Oc1cccc2ccccc12)c1cccs1
Measured property: log fold change Tl+ flux
Result: 0.129 (active)
--
Molecule: CSC(=S)NNC(=O)c1ccc(C(F)(F)F)cc1
Measured property: log fold change Tl+ flux
Result: 0.305 (active)
--
Molecule: CS(=O)(=O)Nc1ccc(N2CCN(c3ccc(C(F)(F)F)cn3)CC2)nc1
Measured property: log fold change Tl+ flux
Result: 0.0149 (inactive)
--
Molecule: Cc1nc(-c2ccc(C(F)(F)F)cc2)sc1CO
Measured property: log fold change Tl+ flux
Result: 0.0953 (active)
--
Molecule: COc1cc(CCC(C)NC(=O)c2ccc(C)cc2)ccc1OC(=O)c1ccc(C)cc1 (stereo not drawn)
Measured property: log fold change Tl+ flux
Result: -0.0233 (inactive)

* * *

Quick list: log fold change Tl+ flux per entry.
System: R275C
Assay: modulators of BK channel variants, profiling panel, selectivity assay, cell-based, U2OS BacMam, thallium flux, beta subunits (AID 1259406);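 note: initial slope of Thallos dye fluorescence rise after thallium is added; log ratio against the mean of 0.3% DMSO vehicle wells on the same plate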
Conditions: at 30 µM

Smiles representation: C=C1/C(=C\C=C2/CCC[C@]3(C)[C@@H]([C@H](C)/C=C/[C@@H](O)C4CC4)CC[C@@H]23)C[C@@H](O)C[C@@H]1O
Tested target: R275C
log fold change Tl+ flux: -0.0334

Smiles representation: Cc1cc(-c2nn(C)c(=O)c3ccccc23)cc(C)c1O
Tested target: R275C
log fold change Tl+ flux: 0.0132

Smiles representation: CNCC[C@@H](Oc1ccccc1C)c1ccccc1
Tested target: R275C
log fold change Tl+ flux: -0.0128
